PROTOCOL SUMMARY: reduction of polyQ htt aggregates in cells – imaging, exon1htt(103Q)mCFP cells, high-content imaging, primary screen (AID 483);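 note: compound exposure lasted 3 days before fixation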
SETUP CONDITIONS: exon1htt(103Q)mCFP cell line, aggregate imaging, at 2 µM; stronger effect = higher value
Quick list: inhibition of aggregation per entry.
QUANTITY: inhibition of aggregation (%)

[
  {
    "COMPOUND": "COc1c(C(=O)Nc2c(C)n(C)n(-c3ccccc3)c2=O)ccc2ccccc12",
    "MEASURED": 16.4
  },
  {
    "COMPOUND": "Cn1c(=O)c2c(nc3sccn32)n(C)c1=O",
    "MEASURED": 5.1
  },
  {
    "COMPOUND": "O=C(Nc1nc(-c2ccncc2)cs1)C1COc2ccccc2O1 (centres undefined)",
    "MEASURED": -3.1
  },
  {
    "COMPOUND": "Cn1c(C(=O)NCC2CCCO2)cc2c(=O)n(C)c3ccccc3c21 (centres undefined)",
    "MEASURED": -1.8
  },
  {
    "COMPOUND": "Cc1ccc(-c2noc(CN3CCN(c4ccccc4F)CC3)n2)cc1",
    "MEASURED": -0.3
  },
  {
    "COMPOUND": "CCN(C(=O)COC(=O)c1cc(C)n(-c2ccc(F)cc2)c1C)C1CCS(=O)(=O)C1 (centres undefined)",
    "MEASURED": -3.9
  },
  {
    "COMPOUND": "Cc1ccccc1CN1CCN(CC(=O)NCc2ccccc2)C1=O",
    "MEASURED": -45.2
  },
  {
    "COMPOUND": "Cc1cc(C)c(NC(=O)C2CSCCS2)c(C)c1 (centres undefined)",
    "MEASURED": 23.2
  },
  {
    "COMPOUND": "CCOC(=O)c1cccc(NC(=O)CS(=O)(=O)Cc2nc(-c3cccc(OC)c3)oc2C)c1",
    "MEASURED": -19.3
  },
  {
    "COMPOUND": "CC1CCCN(C(=O)c2cc3c(-c4ccc(Cl)cc4)nn(C)c3s2)C1 (centres undefined)",
    "MEASURED": -30.1
  },
  {
    "COMPOUND": "CCCc1ccc(Oc2cn[nH]c2-c2ccc(O)c(C)c2O)cc1",
    "MEASURED": 11
  },
  {
    "COMPOUND": "COc1ccc2[nH]c(=O)c(CNC3CCCCC3)cc2c1",
    "MEASURED": 3.5
  },
  {
    "COMPOUND": "Nc1nc(Nc2cccc3ccccc23)nc(C2CCCC2=O)n1 (centres undefined)",
    "MEASURED": -7
  },
  {
    "COMPOUND": "CCOc1cccc2cc(C(=O)N3CCN(C/C=C/c4ccccc4)CC3)c(=O)oc12",
    "MEASURED": -2.4
  },
  {
    "COMPOUND": "Cn1c2ccccc2c2ncn(CCCN3CCOCC3)c(=O)c21",
    "MEASURED": -15.1
  },
  {
    "COMPOUND": "Cc1ccc(C(=O)Nc2ccc3c(c2)OCO3)cc1S(=O)(=O)N1CCCC1",
    "MEASURED": 12.6
  },
  {
    "COMPOUND": "COC(=O)c1cn(NC(=O)C2CCCO2)c(=O)c2ccccc12 (centres undefined)",
    "MEASURED": 12.6
  },
  {
    "COMPOUND": "CCOc1cc(CN2CCN(C(=O)c3ccco3)CC2)ccc1OC",
    "MEASURED": 8.5
  },
  {
    "COMPOUND": "O=C1c2ccccc2C(=O)N1C/C=C/c1ccccc1",
    "MEASURED": -5.9
  },
  {
    "COMPOUND": "Cc1cc(C(=O)Nc2ccccc2C#N)n(-c2ccccc2)n1",
    "MEASURED": 19.6
  },
  {
    "COMPOUND": "Cc1cc(C(=O)NCCCc2ccccc2)no1",
    "MEASURED": 0
  },
  {
    "COMPOUND": "O=C(CCC1COc2ccccc2O1)NCC1COc2ccccc2O1 (centres undefined)",
    "MEASURED": -5.5
  },
  {
    "COMPOUND": "CCCC(C)c1nnc(NC(=O)C2CCCO2)s1 (centres undefined)",
    "MEASURED": -11.3
  },
  {
    "COMPOUND": "CCCSC1=C(C#N)C(c2cc(OC)ccc2OC)CC(=O)N1 (centres undefined)",
    "MEASURED": 10.8
  },
  {
    "COMPOUND": "COC(=O)Cn1c(CN2CCN(c3ccccc3F)CC2)nc2c1c(=O)n(C)c(=O)n2C",
    "MEASURED": -18.2
  },
  {
    "COMPOUND": "Cc1cc(C)c2[nH]c(=O)c(C(c3nnnn3Cc3ccc4c(c3)OCO4)N3CCC(C)CC3)cc2c1 (centres undefined)",
    "MEASURED": 2.1
  },
  {
    "COMPOUND": "COc1cc2cc(C(c3nnnn3C3CCCC3)N(C)C3CCCCC3)c(=O)[nH]c2cc1OC (centres undefined)",
    "MEASURED": -34.3
  },
  {
    "COMPOUND": "O=C(CSc1ncc(-c2ccc(F)cc2)[nH]1)N1CCCCC1",
    "MEASURED": -11
  },
  {
    "COMPOUND": "O=C(Nc1ccc2c(c1)OCO2)OCc1ccccc1",
    "MEASURED": -6
  },
  {
    "COMPOUND": "O=C(Cn1c(-c2cncs2)nc2ccccc21)NC1CCCC1",
    "MEASURED": 0
  },
  {
    "COMPOUND": "c1cc2c(cc1Nc1nc(-c3ccc4c(c3)OCO4)cs1)OCCO2",
    "MEASURED": 10
  },
  {
    "COMPOUND": "O=C(NCc1cccs1)c1cc2c(s1)CCCC2",
    "MEASURED": 5.1
  },
  {
    "COMPOUND": "O=C(O)[C@@H]1CCCN1c1ncnc2sc3c(c12)CCC3",
    "MEASURED": 0.1
  },
  {
    "COMPOUND": "CCOC(=O)CN(C(=O)CSc1nnc(-c2ccncc2)n1CCCN(C)C)c1ccccc1",
    "MEASURED": 12.2
  },
  {
    "COMPOUND": "Cc1ccc(N(CC(=O)NCC2CCCO2)S(C)(=O)=O)cc1Cl (centres undefined)",
    "MEASURED": 0.2
  },
  {
    "COMPOUND": "Cc1cc(O)c(-c2cc(C(=O)Nc3ccc(S(=O)(=O)N4CCOCC4)cc3)[nH]n2)cc1C",
    "MEASURED": -6.9
  },
  {
    "COMPOUND": "Cc1ccc(C(C)C)c(OCCn2c(=O)oc3ccccc32)c1",
    "MEASURED": 0.7
  },
  {
    "COMPOUND": "CCCc1cc(=O)[nH]c(Nc2ccc(OC)c(Cl)c2)n1",
    "MEASURED": 17.6
  },
  {
    "COMPOUND": "CC1CN(C(=O)CSc2nnc(-c3ccc(Cl)cc3)n2C)CC(C)O1 (centres undefined)",
    "MEASURED": -13.2
  }
]

====

PROTOCOL SUMMARY: blockers of RIG-like receptor reporter activation – cell-based, Sendai virus stimulus, luciferase, 10K MLSCN set, TLR/RLR signaling modifier project, primary screen (AID 602276);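 note: firefly luciferase from ISG56 promoter only with Renilla not read in this screen; 0% = Sendai virus plus DMSO and 100% = medium plus DMSO without virus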
SETUP CONDITIONS: HEK293 RL24 IRF3 luciferase reporter, at 10 µM, stronger effect = higher value
Quick list: inhibition per entry.

[
  {
    "COMPOUND": "COc1ccccc1CNC(=O)C1CCC(CNc2c(N3CCOCC3)c(=O)c2=O)CC1 (centres undefined)",
    "inhibition (%)": 1.39
  },
  {
    "COMPOUND": "Cc1nc(N)[nH]c(=O)c1CCC(=O)OCC(C)C",
    "inhibition (%)": 6.72
  },
  {
    "COMPOUND": "CCOC(=O)Cn1c2c(c(=N)c3ccccc31)CCC2",
    "inhibition (%)": 16
  },
  {
    "COMPOUND": "CCOc1ccccc1OCC(=O)NCc1ccco1",
    "inhibition (%)": 11.5
  }
]
